# test_system: Kallikrein-7 (Homo sapiens)
# Sequence (P49862 30-253 limits assumed): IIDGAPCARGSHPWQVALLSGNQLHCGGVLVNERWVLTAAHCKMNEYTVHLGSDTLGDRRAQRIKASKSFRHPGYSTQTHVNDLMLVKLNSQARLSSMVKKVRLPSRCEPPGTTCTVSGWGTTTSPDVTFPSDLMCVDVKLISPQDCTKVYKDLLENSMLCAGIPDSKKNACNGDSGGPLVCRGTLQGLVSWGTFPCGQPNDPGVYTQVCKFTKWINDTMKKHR
# method_notes: Inhibition of human KLK7 assessed as residual enzyme activity at 10 uM
parameter_measured: Activity (%)

Sample answers from the record:
- compound: "CCCCCCCCCCCCCCC/C(O)=C1/C(=O)[C@H](Cc2ccccc2)N(C(=O)OC(C)(C)C)C1=O"
  test_system: "Kallikrein-7 (Homo sapiens)"
  reported_measurement: 0
- compound: "CCCCCCCCCCC/C(O)=C1/C(=O)[C@H](Cc2ccccc2)N(C(=O)OC(C)(C)C)C1=O"
  test_system: "Kallikrein-7 (Homo sapiens)"
  reported_measurement: 0
- compound: "CC/C(O)=C1/C(=O)[C@H](Cc2ccccc2)N(C(=O)OC(C)(C)C)C1=O"
  test_system: "Kallikrein-7 (Homo sapiens)"
  reported_measurement: 50
- compound: "CC(C)C/C(O)=C1/C(=O)[C@H](Cc2ccccc2)N(C(=O)OC(C)(C)C)C1=O"
  test_system: "Kallikrein-7 (Homo sapiens)"
  reported_measurement: 70
- compound: "CCCCCCCCCCCCCCCCC/C(O)=C1/C(=O)[C@H](Cc2ccccc2)N(C(=O)OC(C)(C)C)C1=O"
  test_system: "Kallikrein-7 (Homo sapiens)"
  reported_measurement: 0

[a] CCCCC/C=C\C/C=C\CCCCCCC/C(O)=C1/C(=O)[C@H](Cc2ccccc2)N(C(=O)OC(C)(C)C)C1=O
[b] CCCCCCCCCCCCC/C(O)=C1/C(=O)[C@H](Cc2ccccc2)N(C(=O)OC(C)(C)C)C1=O
[ask] Determine, for a and b , which has the greater value of Activity. Answer with the label corresponding to your selection.
[reply] a

====

# test_system: Kallikrein-5 (Homo sapiens) (UniProt Q9Y337)
# Sequence (Q9Y337 whole entry): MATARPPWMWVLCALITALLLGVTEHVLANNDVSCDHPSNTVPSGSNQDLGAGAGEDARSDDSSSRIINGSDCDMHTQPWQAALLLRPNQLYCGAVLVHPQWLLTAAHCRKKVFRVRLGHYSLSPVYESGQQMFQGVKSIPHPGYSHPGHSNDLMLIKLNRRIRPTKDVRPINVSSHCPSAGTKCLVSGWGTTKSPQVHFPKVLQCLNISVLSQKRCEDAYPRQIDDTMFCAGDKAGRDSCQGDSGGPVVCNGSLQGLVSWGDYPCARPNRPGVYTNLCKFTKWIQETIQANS
# method_notes: Inhibition of human KLK5 assessed as residual enzyme activity at 10 uM
parameter_measured: Activity (%)

Worked set:
- compound: "CCCCCCCCCCCCCCCCC/C(O)=C1/C(=O)[C@H](Cc2ccccc2)N(C(=O)OC(C)(C)C)C1=O"
  test_system: "Kallikrein-5 (Homo sapiens) (UniProt Q9Y337)"
  Activity [%]: 0
- compound: "CCCCCCCCCCCCC/C(O)=C1/C(=O)[C@H](Cc2ccccc2)N(C(=O)OC(C)(C)C)C1=O"
  test_system: "Kallikrein-5 (Homo sapiens) (UniProt Q9Y337)"
  Activity [%]: 0
- compound: "CCCCC/C=C\\C/C=C\\CCCCCCC/C(O)=C1/C(=O)[C@H](Cc2ccccc2)N(C(=O)OC(C)(C)C)C1=O"
  test_system: "Kallikrein-5 (Homo sapiens) (UniProt Q9Y337)"
  Activity [%]: 50

[I] CCCC(C)/C(O)=C1/C(=O)[C@H](Cc2ccccc2)N(C(=O)OC(C)(C)C)C1=O (some centres undefined)
[II] CC(C)C/C(O)=C1/C(=O)[C@H](Cc2ccccc2)N(C(=O)OC(C)(C)C)C1=O
[ask] Identify the entry with the smaller Activity: I or II . Lab log: write the label of the selected item as the result.
[reply] I
(I: 0%, II: 80%)

[1] CCCCCCCCCCC/C(O)=C1/C(=O)[C@H](Cc2ccccc2)N(C(=O)OC(C)(C)C)C1=O
[2] CC/C(O)=C1/C(=O)[C@H](Cc2ccccc2)N(C(=O)OC(C)(C)C)C1=O
[ask] // task: argmin of Activity over [ 1 , 2 ] // caller expects the label of the chosen entry
[reply] 1
(1: 0%, 2: 80%)
